Cited source for all entries: patent US20240368275A1

# assayTarget: T1, human Nectin4-Fc fusion protein (human, UniProt Q96NY8 32-349)
# T1 construct: Recombinant protein coated in the scFv ELISA and captured on the anti-hFc chip in the scFv SPR; also called recombinant Nectin4-Fc fusion protein; human Nectin4-Fc protein; not shown: Fc part
# T1 sequence (looked up): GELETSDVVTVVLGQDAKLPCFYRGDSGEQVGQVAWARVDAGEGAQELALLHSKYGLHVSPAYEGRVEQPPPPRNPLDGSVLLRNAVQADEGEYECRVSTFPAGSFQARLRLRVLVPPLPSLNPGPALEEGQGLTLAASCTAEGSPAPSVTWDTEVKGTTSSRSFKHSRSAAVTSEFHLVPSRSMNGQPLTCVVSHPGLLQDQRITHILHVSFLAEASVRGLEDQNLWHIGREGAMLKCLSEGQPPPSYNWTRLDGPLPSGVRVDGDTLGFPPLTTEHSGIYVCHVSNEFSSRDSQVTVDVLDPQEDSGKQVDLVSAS
# assayRemarks: SPR Biacore T200, Nectin4-Fc captured on anti-hFc chip, scFv injected
observedProperty: koff (s⁻¹)
The figure you give is taken to be in s⁻¹; do not add the unit.

stdin: Assign koff to the following record: 2020EP034-B09 scFv (scFv, V domains shown) VH: EVQLVQSGAEVKKPGASVKVSCKASGYTFTGYYMHWVRQAPGQGLEWMGRINPNSGGTNYAQKFQGRVTMTRDTSISTAYMELSGLRSDDTAVYFCARVTYNIGWYIDYWGQGTLVTVSS VL: QAVVTQPPSVSVAPGKTATITCGGNNIGSKGVHWYQQKPGQAPVLVIYYDTDRPSGIPERLSGSNSGNTATLTISRVEAGDEADYYCQVWDSSSDHPVFGGGTKLTVL
stdout: 0.00018
